- Test target: P. falciparum apicoplast DNA polymerase (Pf-apPOL) (Plasmodium falciparum, UniProt Q8ILY1)
- Sequence (Q8ILY1 entry or part of it): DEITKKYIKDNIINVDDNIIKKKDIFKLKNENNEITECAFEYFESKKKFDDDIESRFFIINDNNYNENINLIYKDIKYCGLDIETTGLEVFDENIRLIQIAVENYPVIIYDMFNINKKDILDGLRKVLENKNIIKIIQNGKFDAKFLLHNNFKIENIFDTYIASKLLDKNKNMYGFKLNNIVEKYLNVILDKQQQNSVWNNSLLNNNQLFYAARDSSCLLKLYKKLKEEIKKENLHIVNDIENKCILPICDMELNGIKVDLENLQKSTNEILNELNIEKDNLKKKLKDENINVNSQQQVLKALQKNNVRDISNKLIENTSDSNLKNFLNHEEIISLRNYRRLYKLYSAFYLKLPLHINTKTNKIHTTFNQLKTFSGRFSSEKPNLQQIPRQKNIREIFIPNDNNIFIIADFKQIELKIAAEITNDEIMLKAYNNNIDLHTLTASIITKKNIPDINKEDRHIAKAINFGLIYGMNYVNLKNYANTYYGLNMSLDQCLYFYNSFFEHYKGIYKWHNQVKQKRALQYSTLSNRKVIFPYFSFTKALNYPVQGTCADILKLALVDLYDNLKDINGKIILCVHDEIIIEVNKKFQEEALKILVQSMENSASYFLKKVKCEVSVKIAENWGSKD
- Test description: Fluorescence-based high-throughput DNA polymerase assay (molecular beacon), primary screen and dose-response;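 as to % inhibition apPOL 180': test concentration in µM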
- Format: biochemical
- Cond: DRC-1; 180'; concentration 20

Molecule | % inhibition apPOL 180' / %
O=C(O)c1ccc(-c2nc3cc(-c4ccc5nc(-c6ccc(C(=O)O)cc6)[nH]c5c4)ccc3[nH]2)cc1 | 73.7422
CC(NC(=O)Cc1cc(=O)[nH]c(SCc2cccc(Cl)c2)n1)c1ccccc1 (stereo not shown) | 10.3203
O=C(Cn1ccc2c(=O)[nH]ccc21)Nc1cccc(Cl)c1 [Molecule 23, O=C(Cn1ccc2c1cc[nH]c2=O)Nc1cccc(c1)Cl] | 62.9592
CCOc1cccc2cc(C(=O)Nc3nnc(-c4ccno4)o3)oc12 | 44.8371
O=c1cc(-c2ccccc2)oc2c(O)c(O)ccc12 | 7.699
COc1ccc(C=C2Oc3c(ccc4c3CN(c3ccc5c(c3)OCO5)CO4)C2=O)cc1OC | 61.4424
COc1ccccc1CCC(=O)N1CCc2c(nc3cc(-c4ccccc4)[nH]n3c2=O)C1 | 59

---

Listed below: % inhibition Apol 90' values for each entry.
- Test target: P. falciparum apicoplast DNA polymerase (Pf-apPOL) (Plasmodium falciparum, UniProt Q8ILY1)
- Test description: Fluorescence-based high-throughput DNA polymerase assay (molecular beacon), primary screen and dose-response
- Type: biochemical
- Cond: DRC-1; 90'; concentration 10

Compound | % inhibition Apol 90'
O=c1[nH]c2ccc([N+](=O)[O-])cc2c(-c2ccccc2)c1Sc1nc2ccccc2o1 | 13.3902%
CCN1C(=O)C(=Cc2cccc(OC)c2O)SC1=S | 7.892%
CSC1=C(C#N)C(=C(C#N)C#N)NC(c2ccccc2)=N1 [Molecule 2, CSc1nc([nH]c(=C(C#N)C#N)c1C#N)c1ccccc1] | 79.1809%
O=C(Nc1ncc([N+](=O)[O-])s1)c1ccc2c(c1)C(=O)N(N1C(=O)c3ccccc3C1=O)C2=O | 17.1111%

---

Listed below: % inhibition Apol 40' values for each entry.
- Test target: P. falciparum apicoplast DNA polymerase (Pf-apPOL) (Plasmodium falciparum)
- Test description: Fluorescence-based high-throughput DNA polymerase assay (molecular beacon), primary screen and dose-response
- Assay type: biochemical
- Cond: DRC-2; 40'; conc 5
Recorded endpoint: % inhibition Apol 40' (%)

Molecule | Readout units | Reported
N#CC(C#N)=C1SCN(c2cccc(Cl)c2)CS1 | % | 42
O=C(O)c1ccc(COc2cc([N+](=O)[O-])cc3cccnc23)cc1 | % | 14
O=C1Nc2ccc(I)cc2C1=Cc1cc(Br)c(O)c(Br)c1 | % | 11
Cc1ccc(CNC(=O)c2cnn3c(O)cc(CSc4ccc(Cl)cc4)nc23)cc1 | % | 49
COc1ccccc1C1CC(=O)Oc2cc3c(cc21)OCO3 (stereo not drawn) | % | 27
CC(C)CCNC(=O)c1cnn2c(O)cc(CSc3ccc(Cl)cc3)nc12 | % | 24
Cc1ccc(NC(=O)Cn2ccc3c(=O)[nH]ccc32)c(C)c1 | % | -0.571
C=CC1=C(C)c2cc3[nH]c(cc4nc(cc5[nH]c(cc1n2)c(C)c5CCC(=O)O)C(CCC(=O)O)=C4C)c(C)c3C=C | % | 57
Cc1ccccc1NC(=O)Cn1ccc2c(=O)[nH]ccc21 [Molecule 50, O=C(Cn1ccc2c1cc[nH]c2=O)Nc1ccc(cc1)C] | % | 16
CCOc1nc2cccc(C(=O)OC(C)OC(=O)OC3CCCCC3)c2n1Cc1ccc(-c2ccccc2-c2nnn[nH]2)cc1 (stereo not drawn) | % | 19
C=CCOc1c(Br)cc(Br)cc1/C=C1\SC(=N)NC1=O | % | 7
Cc1cccc(C2=N/C(=C\c3ccc([N+](=O)[O-])o3)C(=O)O2)c1 | % | 23
O=c1nc(/C=C/c2ccc(Br)cc2)oc2ccccc12 | % | -2.13
Cc1cccc(NC(=O)Cn2ccc3c(=O)[nH]ccc32)c1C [Molecule 11, O=C(Cn1ccc2c1cc[nH]c2=O)Nc1cccc(c1C)C] | % | 28
Cc1ccc(N2NC(=O)/C(=C\c3ccc(O)c([N+](=O)[O-])c3)C2=O)cc1Cl | % | 20
COC(=O)c1sc(-c2ccc(C(C)(C)C)cc2)cc1NC(=O)CCC(=O)O | % | 9
O=C1NN(c2ccc(Cl)c(Cl)c2)C(=O)/C1=C/c1ccc(-c2ccc3c(c2)C(=O)OC3)o1 | % | 10
Cc1cc(C)c2c(c1)C1C=CCC1C(c1ccc(C(=O)O)cc1)N2 (stereo not drawn) | % | 50
